Source of measurements: patent US20230116703A1

- target: 5-HT2B receptor (Homo sapiens, UniProt P41595)
- Construct: host or cells: HEK293
- Sequence (P41595 whole entry): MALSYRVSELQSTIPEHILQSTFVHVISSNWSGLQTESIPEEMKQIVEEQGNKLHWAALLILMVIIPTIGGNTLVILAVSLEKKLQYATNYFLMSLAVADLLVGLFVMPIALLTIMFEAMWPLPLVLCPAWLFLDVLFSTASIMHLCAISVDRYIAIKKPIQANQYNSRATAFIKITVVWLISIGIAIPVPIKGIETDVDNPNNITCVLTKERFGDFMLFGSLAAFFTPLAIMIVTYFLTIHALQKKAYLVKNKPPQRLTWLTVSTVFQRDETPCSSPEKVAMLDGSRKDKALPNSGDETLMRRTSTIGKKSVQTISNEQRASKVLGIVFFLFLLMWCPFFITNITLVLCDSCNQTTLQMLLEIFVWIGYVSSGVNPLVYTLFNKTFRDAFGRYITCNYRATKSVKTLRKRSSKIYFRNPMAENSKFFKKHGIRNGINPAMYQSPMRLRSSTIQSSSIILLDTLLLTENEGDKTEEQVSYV
- assay_info: cell-based
- settings: Ca^2+ flux, agonist; read-out: 5-HT2B EC50
assay_metric: pEC50
Friendly reminder that pEC50 comes from taking -log10 of the concentration in mol/L.

{"compound": "CCCN1C[C@H](C(=O)N(CC)CC)C=C2c3cccc4c3C(CN4)C[C@H]21 (mixture of isomers)", "pEC50": 6.20}

// pEC50 (5-HT2B receptor (Homo sapiens, UniProt P41595)) for `CC[C@@H](C)NC(=O)[C@@H]1C=C2c3cccc4[nH]cc(c34)C[C@H]2N(C)C1` = 7.14
